Assay: self-splicing fitness, log relative to wild type (ln ratio); higher = more splicing; Tetrahymena group I intron in knt gene, E. coli kanamycin selection, DiMSum; sequences stand for … in CUCUCU…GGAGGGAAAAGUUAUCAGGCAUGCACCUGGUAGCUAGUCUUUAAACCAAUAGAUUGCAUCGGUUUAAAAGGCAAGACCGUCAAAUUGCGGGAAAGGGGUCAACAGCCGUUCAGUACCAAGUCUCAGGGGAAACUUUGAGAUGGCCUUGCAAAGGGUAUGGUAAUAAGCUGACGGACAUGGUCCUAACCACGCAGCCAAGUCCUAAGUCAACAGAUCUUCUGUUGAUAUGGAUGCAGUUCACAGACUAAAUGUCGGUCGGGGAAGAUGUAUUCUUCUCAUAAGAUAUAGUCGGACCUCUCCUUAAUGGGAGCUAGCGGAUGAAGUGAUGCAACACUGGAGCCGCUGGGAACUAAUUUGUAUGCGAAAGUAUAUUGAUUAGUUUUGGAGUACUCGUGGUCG;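 note: selection with 25 µg/mL kanamycin versus none on LB agar overnight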
Conditions: 37 °C
Label rule, in plain words: self-splicing fitness (ln) of -2 and up is Met, under -2 is Not met.

[[record]]
item_sequence = "UCCCAGCAAUAUUACGUCGU"
qualitative_label = "Met"

[[record]]
item_sequence = "UGUUAGCAAUAUUACGCCUU"
qualitative_label = "Met"

[[record]]
item_sequence = "CACGAGCAAUAUUACGGUUG"
qualitative_label = "Met"

[[record]]
item_sequence = "CGUCAGCAAUAUUACGGGUC"
qualitative_label = "Not met"

[[record]]
item_sequence = "CUCCAGCAAUAUUACGAGGA"
qualitative_label = "Not met"

[[record]]
item_sequence = "CGCUAGCAAUAUUACGUAGA"
qualitative_label = "Met"

[[record]]
item_sequence = "UUCGAGCAAUAUUACGCUCG"
qualitative_label = "Not met"


---

Test: self-splicing fitness, log relative to wild type (ln ratio); higher = more splicing; Tetrahymena group I intron in knt gene, E. coli kanamycin selection, DiMSum; sequences stand for … in CUCUCU…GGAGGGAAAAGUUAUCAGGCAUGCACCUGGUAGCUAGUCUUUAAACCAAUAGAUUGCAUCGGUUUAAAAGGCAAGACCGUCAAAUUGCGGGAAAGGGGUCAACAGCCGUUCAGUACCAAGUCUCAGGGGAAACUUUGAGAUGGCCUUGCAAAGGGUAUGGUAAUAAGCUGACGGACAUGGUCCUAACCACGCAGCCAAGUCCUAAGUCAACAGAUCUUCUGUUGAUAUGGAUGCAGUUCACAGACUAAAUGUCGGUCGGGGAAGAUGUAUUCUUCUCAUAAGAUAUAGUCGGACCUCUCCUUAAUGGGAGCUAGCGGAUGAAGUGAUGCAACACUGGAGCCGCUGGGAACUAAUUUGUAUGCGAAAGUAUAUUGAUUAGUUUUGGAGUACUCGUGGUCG
Conditions: 37 °C
sequences and their reported self-splicing fitness (ln)
measurement_label: self-splicing fitness (ln)

[[record]]
item_sequence = "ACAUAGCAAUAUUACGUUCU"
measured_result = -0.553

[[record]]
item_sequence = "AGCCAGCAAUAUUACGCAGU"
measured_result = -3.46

[[record]]
item_sequence = "CGCGAGCAAUAUUACGGGGU"
measured_result = -2.95


---

Assay: self-splicing fitness, log relative to wild type (ln ratio); higher = more splicing; Tetrahymena group I intron in knt gene, E. coli kanamycin selection, DiMSum; sequences stand for … in CUCUCU…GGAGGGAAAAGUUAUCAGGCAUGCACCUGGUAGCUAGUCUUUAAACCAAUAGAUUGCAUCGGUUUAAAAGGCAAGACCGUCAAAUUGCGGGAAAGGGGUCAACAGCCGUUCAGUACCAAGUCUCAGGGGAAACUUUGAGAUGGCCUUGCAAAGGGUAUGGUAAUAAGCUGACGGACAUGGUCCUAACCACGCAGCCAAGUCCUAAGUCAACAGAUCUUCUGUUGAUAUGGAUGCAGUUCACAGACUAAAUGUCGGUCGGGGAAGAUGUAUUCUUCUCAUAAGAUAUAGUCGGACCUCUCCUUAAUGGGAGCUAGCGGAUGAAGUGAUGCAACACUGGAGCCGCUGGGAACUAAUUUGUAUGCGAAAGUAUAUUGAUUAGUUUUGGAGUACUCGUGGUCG
Details: 37 °C
sequences and their reported self-splicing fitness (ln)
measurement_label: self-splicing fitness (ln)

[[record]]
item_sequence = "AGCCAGCAAUAUUACGAACA"
measured_result = -1.98

[[record]]
item_sequence = "AAACAGCAAUAUUACGAGGA"
measured_result = -1.97

[[record]]
item_sequence = "AGUGAGCAAUAUUACGCUUA"
measured_result = -1.98

